// data source = patent US11266739B2

# experimental target: HLA-B*08:01 (Homo sapiens, UniProt P01889, A93T/A95T/D138N/E176V/E187T/K202T/Q94N/R180D/S35A/V36M/Y33D/Y91F)
# protocol details: REVEAL Epitope Discovery System in vitro MHC-peptide binding assay, HLA-B*08:01
# details: binding normalized to positive control peptide set at 100%, score >50 considered good or high affinity binding
# Protocol: Actual binding affinities for certain HLA class I alleles (A*02:01, A*03:01, A*11:01, and B*08:01) were assessed in vitro for exemplary overlapping 9 amino acid peptide sequences within a portion of the 26 amino acid junction region spanning the CD28 and 4-1BB junction. […] In addition, a series of overlapping 9-mer peptides of each of a number of different variants of this portion also were assessed, each variant containing a mutation or mutations in this region as described in Example 2. […]
property: In Vitro Score (B*08:01)
Give a plain numeric answer without units written out.

Example entries and their recorded answers appear below.
INSERT INTO results (item_sequence, quantitative_result) VALUES
  ('AFIIFWVAR [junction 9-mer, peptide 2, mutation K29A]', 0.20),
  ('WVQRGRKKL [junction 9-mer, peptide 7, mutation K29Q]', 45.10),
  ('IFWVKRGAK [junction 9-mer, peptide 5, mutation R32A]', 2.20),
  ('AFIIFWVSR [junction 9-mer, peptide 2, mutation K29S]', 0.30),
  ('WVKRGNKKL [junction 9-mer, peptide 7, mutation R32N]', 65.90);

Problem: Report In Vitro Score (B*08:01) for VAFIIFWVK please.
Solution: 0.30

Problem: Same again, this time with IFWVSRGRK [junction 9-mer, peptide 5, mutation K29S]
Solution: 0.00

Problem: Same again, this time with IFWVKRGNK [junction 9-mer, peptide 5, mutation R32N]
Solution: 0.10

Problem: Same again, this time with AFIIFWVHR [junction 9-mer, peptide 2, mutation K29H]
Solution: 0.30

* * *

# experimental target: HLA-A*11:01 (Homo sapiens, UniProt P04439, A114D/D185E/E176A/F33Y/L180Q/S129P/T187R)
# protocol details: REVEAL Epitope Discovery System in vitro MHC-peptide binding assay, HLA-A*11:01
# details: binding normalized to positive control peptide set at 100%, score >50 considered good or high affinity binding
// reported In Vitro Score (A*11:01) per item
Give a plain numeric answer without units written out.

INSERT INTO results (item_sequence, quantitative_result) VALUES
  ('IFWVQRGNK [junction 9-mer, peptide 5, mutation K29Q/R32N]', 67.50),
  ('IIFWVARGR [junction 9-mer, peptide 4, mutation K29A]', 70.60),
  ('WVARGRKKL [junction 9-mer, peptide 7, mutation K29A]', 13.80);

Problem: For the record WVKRGHKKL [junction 9-mer, peptide 7, mutation R32H] , what value of In Vitro Score (A*11:01) is listed for HLA-A*11:01 (Homo sapiens, UniProt P04439, A114D/D185E/E176A/F33Y/L180Q/S129P/T187R)?
Solution: 2.80

Problem: Same again, this time with IFWVKRGSK [junction 9-mer, peptide 5, mutation R32S]
Solution: 47.90

Problem: Same again, this time with WVQRGRKKL [junction 9-mer, peptide 7, mutation K29Q]
Solution: 12.80

Problem: Same again, this time with IFWVSRGRK [junction 9-mer, peptide 5, mutation K29S]
Solution: 39.20

Problem: Same again, this time with IIFWVQRGR [junction 9-mer, peptide 4, mutation K29Q]
Solution: 72.80

Problem: Same again, this time with IIFWVSRGR [junction 9-mer, peptide 4, mutation K29S]
Solution: 68.90

Problem: Same again, this time with WVKRGNKKL [junction 9-mer, peptide 7, mutation R32N]
Solution: 4.10

Problem: Same again, this time with IFWVARGRK [junction 9-mer, peptide 5, mutation K29A]
Solution: 34.90

Problem: Same again, this time with IIFWVKRGL [junction 9-mer, peptide 4, mutation R32L]
Solution: 32.40

Problem: Same again, this time with IFWVHRGRK [junction 9-mer, peptide 5, mutation K29H]
Solution: 36.60

Problem: Same again, this time with IFWVKRGNK [junction 9-mer, peptide 5, mutation R32N]
Solution: 45.90

Problem: Same again, this time with VAFIIFWVK
Solution: 109.20

Problem: Same again, this time with IIFWVKRGA [junction 9-mer, peptide 4, mutation R32A]
Solution: 22.60

* * *

# experimental target: HLA-B*08:01 (Homo sapiens, UniProt P01889, A93T/A95T/D138N/E176V/E187T/K202T/Q94N/R180D/S35A/V36M/Y33D/Y91F)
# protocol details: REVEAL Epitope Discovery System in vitro MHC-peptide binding assay, HLA-B*08:01
# details: binding normalized to positive control peptide set at 100%, score >50 considered good or high affinity binding
property: In Vitro Score (B*08:01)
Give a plain numeric answer without units written out.

Example entries and their recorded answers appear below.
INSERT INTO assay_data (item_sequence, property, quantitative_result) VALUES
  ('IIFWVKRGS [junction 9-mer, peptide 4, mutation R32S]', 'In Vitro Score (B*08:01)', 0.40),
  ('IIFWVLRGR [junction 9-mer, peptide 4, mutation K29L]', 'In Vitro Score (B*08:01)', 0.40),
  ('IFWVQRGNK [junction 9-mer, peptide 5, mutation K29Q/R32N]', 'In Vitro Score (B*08:01)', 0.10);

Next:
Problem: Report In Vitro Score (B*08:01) for IIFWVHRGR [junction 9-mer, peptide 4, mutation K29H] please.
Solution: 0.20

* * *

# experimental target: HLA-A*11:01 (Homo sapiens, UniProt P04439, A114D/D185E/E176A/F33Y/L180Q/S129P/T187R)
# protocol details: REVEAL Epitope Discovery System in vitro MHC-peptide binding assay, HLA-A*11:01
# details: binding normalized to positive control peptide set at 100%, score >50 considered good or high affinity binding
Field: label. Allowed values: t (In Vitro Score (A*11:01) < 30) or f (In Vitro Score (A*11:01) >= 30).

Use these answered entries as a reference point.
INSERT INTO results (item_sequence, group) VALUES
  ('FWVARGRKK [junction 9-mer, peptide 6, mutation K29A]', 't'),
  ('WVKRGAKKL [junction 9-mer, peptide 7, mutation R32A]', 't'),
  ('WVQRGNKKL [junction 9-mer, peptide 7, mutation K29Q/R32N]', 't'),
  ('AFIIFWVAR [junction 9-mer, peptide 2, mutation K29A]', 'f'),
  ('IFWVKRGAK [junction 9-mer, peptide 5, mutation R32A]', 'f');

Problem: A record lists AFIIFWVHR [junction 9-mer, peptide 2, mutation K29H] . Is its In Vitro Score (A*11:01) below 30?
Solution: f

Problem: Same again, this time with IIFWVHRGR [junction 9-mer, peptide 4, mutation K29H]
Solution: f

Problem: Same again, this time with IIFWVQRGA [junction 9-mer, peptide 4, mutation K29Q/R32A]
Solution: f

Problem: Same again, this time with IIFWVKRGN [junction 9-mer, peptide 4, mutation R32N]
Solution: f

Problem: Same again, this time with IFWVQRGAK [junction 9-mer, peptide 5, mutation K29Q/R32A]
Solution: f

Problem: Same again, this time with IIFWVKRGR
Solution: f
